assay: Aqueous solubility of compound in neutral JP2 solution; format: physicochemical; conditions: JP2 solution; read-out: solubility
quantity.kind: solubility
In your response, put the unit directly after the numeric value.

IN: Given the entry `CO[C@@H]1[C@@H](OC(=O)c2ccc(C)[nH]2)[C@@H](O)[C@H](Oc2ccc3c(O)c(NC(=O)c4ccc(O)c(CC=C(C)C)c4)c(=O)oc3c2C)OC1(C)C` , report its measured solubility.
OUT: 69.2 µM

IN: Given the entry `C#CCONC(=O)O[C@H]1[C@@H](O)[C@H](Oc2ccc3c(O)c(NC(=O)c4ccc(O)c(CC=C(C)C)c4)c(=O)oc3c2C)OC(C)(C)[C@@H]1OC` , report its measured solubility.
OUT: 69.3 µM

IN: Given the entry `CO[C@@H]1[C@@H](OC(=O)c2ccc(C)[nH]2)[C@@H](O)[C@H](Oc2ccc3c(O)c(NC(=O)c4ccnc(C)c4)c(=O)oc3c2C)OC1(C)C` , report its measured solubility.
OUT: 71.8 µM
